src = patent US20130295102A1

molecular target: T1, Human Factor P (human, UniProt P27918 29-469); test: SET, solution equilibrium titration
T1 construct: Bought protein (Complement Technology cat# A139) in SET and Biacore; Factor P of human serum in the functional assays; also called FP; human FP
T1 sequence (P27918 29-469 limits assumed): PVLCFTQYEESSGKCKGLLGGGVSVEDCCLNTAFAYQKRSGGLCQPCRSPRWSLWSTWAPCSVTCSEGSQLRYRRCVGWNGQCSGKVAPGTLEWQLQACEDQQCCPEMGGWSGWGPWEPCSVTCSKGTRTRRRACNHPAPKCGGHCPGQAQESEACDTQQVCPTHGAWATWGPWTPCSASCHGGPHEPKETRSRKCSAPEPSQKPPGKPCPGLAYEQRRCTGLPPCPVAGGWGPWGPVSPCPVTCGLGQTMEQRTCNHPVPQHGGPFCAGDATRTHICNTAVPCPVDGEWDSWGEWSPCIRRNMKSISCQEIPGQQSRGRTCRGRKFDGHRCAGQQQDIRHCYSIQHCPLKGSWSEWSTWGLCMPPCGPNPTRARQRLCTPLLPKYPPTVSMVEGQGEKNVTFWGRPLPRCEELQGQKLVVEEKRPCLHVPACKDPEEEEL
Reported Kd values follow for various binders
measured_attribute: Kd (nM)

[[record]]
binder = "NVS964 (Fab, V domains shown, Disulfide-bridged Fab; also called Fab NVS964) VH: EVQLVQSGAEVKKPGASVKVSCKASGYTFTSHYMHWVRQAPGQGLEWMGKINADLGDTNYAQKFQGRVTMTRDTSISTAYMELSSLRSEDTAVYYCARDGIEHGGHYYWGYLFDIWGQGTLVTVSS VL: SYELTQPPSVSVAPGQTARISCSGDSIREYYVHWYQQKPGQAPVLVIGDDTNRPSGIPERFSGSNSGNTATLTISGTQAEDEADYYCAAWDFSPAIVFGGGTKLTVLG"
readout_value = 0.02

[[record]]
binder = "NVS963 (Fab, V domains shown, Disulfide-bridged Fab; also called Fab NVS963) VH: EVQLVQSGAEVKKPGSSVKVSCKASGGTFSSYAISWVRQAPGQGLEWMGPINPYYGDAIYAQKFQGRVTITADESTSTAYMELSSLRSEDTAVYYCARYYSDYMDYWGQGTLVTVSS VL: QSVLTQPPSVSGAPGQRVTISCTGSSSNIGAGYDVHWYQQLPGTAPKLLIHDNSHRPSGVPDRFSGSKSGTSASLAITGLQSEDEADYYCASYDESAHSVFGGGTKLTVLG"
readout_value = 0.055

